Measured z-score values are reported for all entries that follow.
Test Name: PSAC antagonists in infected red cells, primary screen, cell-based, P. falciparum Indochina, OD700, 2 h (AID 1155);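 also: lysis reports solute entry through the parasite surface anion channel PSAC; channel blockers reduce lysis of infected cells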
Assay Conditions: P. falciparum Indochina infected erythrocytes, osmotic lysis OD700; higher = more signal, called active from +8 up or from −8 down

Compound: COC(=O)C(CC#Cc1ccc2c(c1)[C@]1(C(=O)N2)[C@H](c2ccccc2OCCO)N2[C@H](c3ccccc3)[C@H](c3ccccc3)OC(=O)[C@H]2[C@@H]1C(=O)NC[C@H](O)c1ccccc1)C(=O)OC
z-score: 1.18
//
Compound: C=CCC(OC(C)=O)[C@@H]1[C@@H](N(Cc2cc3ccccc3o2)C(=O)c2ccc(-c3ccccc3)cc2)c2cc(OCCCO)ccc2N1C(=O)c1ccc2ccccc2c1 (stereo partly drawn)
z-score: 0.354
//
Compound: O=C1O[C@H](c2ccccc2)[C@H](c2ccccc2)N2[C@H]1[C@@H](C(=O)Nc1nc3ccccc3s1)[C@]1(C(=O)Nc3ccc(C#CCCO)cc31)[C@H]2c1ccc(O)cc1
z-score: 1.05

----------
Subject Of Test: NADPH oxidase 5 (Homo sapiens)
Test Name: NOX5-dependent H2O2 signal modulators, primary screen, NOX inhibitor project, cell-based, HEK293-NOX5, Amplex Red fluorescence (AID 1161)
Assay Conditions: HEK293-NOX5, ionomycin, 45 min, higher = more signal
Parameter Measured: z-score

Compound: C=C(COC)/C(=C/C[C@H](OC(C)=O)c1ccc(OCCO)cc1)c1cc(C(=O)OC)ccc1OC
Reported: -1.34

Compound: O=C1OCC=C[C@H]2OC34C=CCN(c5ccc(Cl)cc5)C(=O)[C@H]3N(CCO)C(=O)[C@@H]4[C@@H]12 (some centres not stated)
Reported: 1.31

Compound: COc1ccc([Si](C)(C)[C@@H]2[C@@H](CC(=O)N3Cc4ccccc4C[C@H]3CO)O[C@]3(C(=O)N(Cc4cccc(N5C(=O)c6cccc7cccc5c67)c4)c4ccccc43)[C@H]2C)cc1
Reported: 2.34

Compound: COc1ccc(CCN2C(=O)[C@@]3(Cc4ccccc42)c2ccccc2C(=O)N(Cc2ccccc2OC)[C@H]3c2ccc(CO)cc2)cc1
Reported: 0.327

Compound: COc1ccc([Si](C)(C)[C@@H]2[C@@H](CCO)O[C@]3(C(=O)N(Cc4ccc(N5CCCCC5=O)cc4)c4ccccc43)[C@H]2C)cc1
Reported: 2.1

Compound: Cc1cc(C)c(C(O)C2C=CC3C(=O)N(c4ccccc4)C(=O)C3N2Nc2ccc(C(C)C)cc2)c(C)c1 (configuration not stated)
Reported: -7.33

Compound: CCCNC(=O)[C@@H]1c2ccccc2C(=O)N(C(C)C)[C@H]1c1ccc(CO)cc1
Reported: -0.0547

----------
Test Name: inhibitors of hydroxyurea-induced Chk1 phosphorylation, primary screen, imaging, HeLa, phospho-Chk1 antibody, percent positive cells (AID 1186)
Assay Conditions: hydroxyurea-induced phospho-Chk1 immunofluorescence imaging, higher = more signal
// thresholds for z-score classes: LOW = under -0.2, MEDIUM = from -0.2 up to 0.07, HIGH = 0.07 and over

Molecule: O=C1O[C@H](c2ccccc2)[C@H](c2ccccc2)N2[C@H]1[C@@H](C(=O)NC[C@H](O)c1ccccc1)[C@]1(C(=O)Nc3ccc(C#CCCO)cc31)[C@H]2c1ccc(OCCO)cc1
Label: LOW

Molecule: COC1OC[C@]2(C)[C@H]3C4=C(CN2C(=O)OC(C)(C)C)[C@H](C)C(CO)C(CO)C4CC[C@@H]13 (some centres undefined)
Label: HIGH

Molecule: O=C1OCC=C[C@H]2OC34C=CCN(Cn5nnc6ccccc65)C(=O)[C@H]3N(CCCO)C(=O)[C@@H]4[C@@H]12 (some centres undefined)
Label: LOW

Molecule: CN1C(=O)C2C=CC(C(O)c3ccc(F)cc3)N(Nc3ccccc3)C2C1=O (centres undefined)
Label: HIGH

Molecule: Cc1cc(C)cc(N2C(=O)CSC2c2cccc([N+](=O)[O-])c2)c1 (centres undefined)
Label: LOW

Molecule: COC(=O)[C@@]1(Cc2ccccc2)[C@H]2c3cc(C(=O)N(C)C)n(CCN4CNCC4=O)c3C[C@H]2CN1C(=O)c1ccccc1
Label: LOW

Molecule: [N-]=[N+]=NCc1ccccc1C[C@]1(C(N)=O)N=C(c2ccc(OCCCO)cc2)O[C@H]1c1ccccc1
Label: MEDIUM

Molecule: COCCOC(=O)N1C(=O)[C@@]2(c3cc(C#CC4=CCCCC4)ccc31)[C@H](c1ccccc1OCCO)N1[C@H](c3ccccc3)[C@H](c3ccccc3)OC(=O)[C@H]1[C@@H]2C(=O)N1CCCCCCC1
Label: HIGH

Molecule: CC1CC/C=C\[C@H]2OC34C=CCN(C(C)C)C(=O)[C@H]3N(CCCCCCO)C(=O)[C@@H]4C2C(=O)O1 (some centres undefined)
Label: MEDIUM

Molecule: O=C1OCC=C[C@H]2OC34C=CCN(c5ccc(Cl)cc5)C(=O)[C@H]3N(CCO)C(=O)[C@@H]4[C@@H]12 (some centres undefined)
Label: LOW

Molecule: COc1ccc(-c2cc3c(c(CCc4ccccc4)n2)[Si](C(C)C)(C(C)C)OC3)cn1
Label: MEDIUM

Molecule: C=C(CCCC)/C(=C/C[C@@H](OC(=O)c1ccncc1)c1ccccc1OCCO)c1cnc2ccccc2c1
Label: HIGH

Molecule: O=c1n(-c2ccccc2)c(=O)n2n1CC(COc1ccccc1)=C([C@H](O)CCc1ccccc1)[C@@H]2CO
Label: LOW

Molecule: O=C1O[C@H](c2ccccc2)[C@H](c2ccccc2)N2[C@H]1[C@@H](C(=O)Nc1nc3ccccc3s1)[C@]1(C(=O)Nc3ccc(C#CC4(O)CCCCCC4)cc31)[C@H]2c1ccccc1OCCO
Label: HIGH

Molecule: C=CCC(OC(C)=O)[C@@H]1[C@@H](N(Cc2cccc3ccccc23)C(=O)Cc2ccc(OC)cc2)c2cc(OCCCO)ccc2N1C(=O)c1ccc2ccccc2n1 (some centres undefined)
Label: LOW

Molecule: COC(=O)[C@@]1(Cc2ccc(OC)cc2)[C@H]2c3cc(C(=O)N(C)C)n(Cc4ccc(Cl)c(C(F)(F)F)c4)c3C[C@H]2CN1C(=O)c1ccccc1
Label: HIGH

Molecule: CCCCCCCCCCC(O)C1C=CC2C(=O)N(C)C(=O)C2N1NC(=O)OC(C)(C)C (centres undefined)
Label: HIGH

Molecule: C=C(COC)/C(=C/C[C@H](OC(=O)c1ccncc1)c1ccccc1OCCO)c1cnc2ccccc2c1
Label: LOW

Molecule: COc1ccc(CCN2C(=O)[C@@]3(Cc4ccccc42)c2ccccc2C(=O)N(Cc2ccccc2OC)[C@H]3c2ccc(CO)cc2)cc1
Label: MEDIUM

Molecule: O=C1C2C=CC(C(O)c3ccc(F)cc3)N(n3cnnc3)C2C(=O)N1Cc1ccccc1 (centres undefined)
Label: MEDIUM

Molecule: COCCOC(=O)N1C(=O)[C@@]2(c3cc(C#CC4(O)CCCCCC4)ccc31)[C@H](c1ccc(O)cc1)N1[C@H](c3ccccc3)[C@H](c3ccccc3)OC(=O)[C@H]1[C@@H]2C(=O)NC[C@H](O)c1ccccc1
Label: MEDIUM

Molecule: CC1=C[C@@]2(CO)C(=O)[C@]3(CO3)[C@@H]1[C@H]1[C@]2(C)C=C(CO)C(=O)[C@]12CO2
Label: LOW

Molecule: COC(=O)c1c2oc(c1C(=O)OC)C(=O)N(C)Cc1cn(nn1)C[C@H](Cc1ccccc1)NC(=O)N[C@H](CO)CC2
Label: HIGH

Molecule: COC(=O)[C@@]1(Cc2ccccc2)[C@@H]2C(=CC(=O)[C@H]2CC(=O)C(=O)N(C)C)CN1C(=O)c1ccccc1
Label: MEDIUM

Molecule: COCC1=C2[C@@H](CCc3ccccc3)OB(O)C[C@@H]2[C@@H]2C(=O)C=CC(=O)[C@@H]2C1
Label: HIGH

Molecule: COc1cc(OC)c(C(O)C2C=CC3C(=O)N(c4ccccc4)C(=O)C3N2Nc2ccccc2)cc1Br (centres undefined)
Label: LOW

Molecule: CC(C)N1C(=O)c2ccccc2[C@@H](C(=O)NC2CC2)[C@@H]1c1ccc(CO)cc1
Label: MEDIUM

Molecule: O=C1OCCC/C=C\[C@H]2OC34C=CCN(CCN5CCOCC5)C(=O)[C@H]3N(CCCCCCO)C(=O)[C@@H]4C12 (some centres undefined)
Label: MEDIUM

Numbers sourced from PubChem BioAssay.
